Target sequence: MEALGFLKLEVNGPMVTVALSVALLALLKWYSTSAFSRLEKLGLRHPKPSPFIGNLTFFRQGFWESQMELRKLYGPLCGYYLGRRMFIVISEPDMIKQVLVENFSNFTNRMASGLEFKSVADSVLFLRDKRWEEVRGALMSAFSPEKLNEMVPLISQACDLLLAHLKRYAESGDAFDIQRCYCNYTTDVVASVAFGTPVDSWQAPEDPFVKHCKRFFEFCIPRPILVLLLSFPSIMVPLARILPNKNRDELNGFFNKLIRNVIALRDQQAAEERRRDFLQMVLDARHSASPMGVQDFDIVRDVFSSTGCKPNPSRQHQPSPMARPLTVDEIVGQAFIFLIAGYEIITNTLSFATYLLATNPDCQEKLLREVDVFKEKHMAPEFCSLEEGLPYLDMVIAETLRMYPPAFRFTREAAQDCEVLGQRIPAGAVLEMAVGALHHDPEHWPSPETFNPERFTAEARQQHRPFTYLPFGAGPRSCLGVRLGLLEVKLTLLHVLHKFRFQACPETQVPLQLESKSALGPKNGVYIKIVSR
Can you tell me pIC50 for the items I'm about to list?
Please report pIC50 as the negative decimal logarithm of the molar concentration, giving only the number.

Need pIC50 of O=C(O)CCCCCC(CNS(=O)(=O)c1ccc([N+](=O)[O-])cc1)c1cccnc1 (stereo not given) , thanks.
6.92

And the next one, Cl.O=C(O)CCCCCC(CNS(=O)(=O)c1ccccc1)c1cccnc1 (stereo in doubt; 6) ?
6.68

Same thing, different compound: O=C(O)CCCCC(CNS(=O)(=O)c1ccc(Cl)cc1)c1cccnc1 (stereo not given)
7.11
